This collection of values is drawn from the supplement of paper PMC13380429.

- System: Vero E6 infected with SARS-CoV-2
- Assay overview: inhibition of SARS-CoV-2 cytopathic effect; higher = more antiviral protection, active = above 15
- Condition details: 10000 nM; 48 h
Write down one outcome, taken from Yes for active, No for inactive

CCCCCOC(=O)Nc1nc(=O)n([C@@H]2O[C@H](C)[C@@H](O)[C@H]2O)cc1F [capecitabine]: No
CN[C@H](CC(C)C)C(=O)N[C@H]1C(=O)N[C@@H](CC(N)=O)C(=O)N[C@H]2C(=O)N[C@H]3C(=O)N[C@H](C(=O)N[C@H](C(=O)O)c4cc(O)cc(O)c4-c4cc3ccc4O)[C@H](O)c3ccc(c(Cl)c3)Oc3cc2cc(c3O[C@@H]2O[C@H](CO)[C@@H](O)[C@H](O)[C@H]2O[C@H]2C[C@](C)(N)[C@H](O)[C@H](C)O2)Oc2ccc(cc2Cl)[C@H]1O: No
CC(C)=CCC[C@](C)(O[C@@H]1O[C@H](CO)[C@@H](O)[C@H](O)[C@H]1O)[C@H]1CC[C@]2(C)[C@@H]1[C@H](O)C[C@@H]1[C@@]3(C)CC[C@H](O)C(C)(C)[C@@H]3CC[C@]12C [ginsenoside-C-K]: No
Cc1cnc(CNC(=O)c2c(=O)c3ccc(N4CCCN(C)CC4)nc3n3c2sc2ccccc23)cn1: No
O=C(c1cncc(Br)c1)N1CCC(N2CCCC2)CC1: No
COc1cc(N)c(Cl)cc1C(=O)CCC1CCN(CCNS(C)(=O)=O)CC1: No

Q) What did this assay record as the result for CC/C(=C(/c1ccc(/C=C/C(=O)O)cc1)c1ccc2[nH]ncc2c1)c1ccc(F)cc1Cl ?
A) No

Q) Cool, now COc1cc2ncn(-c3cc(OCc4ccccc4C(F)(F)F)c(C(N)=O)s3)c2cc1OC
A) No

Q) Cool, now C=C1CC[C@@H]2[C@](C)(CO)[C@H](O)CC[C@@]2(C)[C@@H]1C/C=C1/C(=O)OC[C@H]1O [andrographolide]
A) Yes

Q) Cool, now C[S+](C)CC[C@H](N)C(=O)O [cabagin]
A) No

Q) Cool, now CN1CCC(Nc2ncc3ncnc(Nc4ccc(F)c(Cl)c4)c3n2)CC1
A) No

Q) Cool, now O=C(O)c1ccccc1C(=O)Nc1ccc(-c2ccccc2)cc1 [kartogenin]
A) No

Q) Cool, now O=C(OCCN1CCOCC1)C1(c2ccccc2)CCCCC1
A) No

Q) Cool, now Cn1ccc2cc3c(cc21)CCN3C(=O)Nc1cccnc1
A) No

Q) Cool, now CC(=O)[C@@]12O[C@](C)(c3ccccc3)O[C@@H]1C[C@H]1[C@@H]3CCC4=CC(=O)CC[C@]4(C)[C@H]3CC[C@@]12C [algestone-acetophenide]
A) No

Q) Cool, now CC(C)C[C@H](NC(=O)OCc1ccccc1)C(=O)N[C@@H](C[C@@H]1CCNC1=O)C(O)S(=O)(=O)O (some centres not stated) [GC376 sodium]
A) Yes

Q) Cool, now COc1cc2c(cc1-c1c(C)noc1C)ncc1[nH]c(=O)n([C@H](C)c3ccccn3)c12
A) No

Q) Cool, now CC[C@@H]1/C=C(\C)C[C@H](C)C[C@H](OC)[C@H]2O[C@@](O)(C(=O)C(=O)N3CCCC[C@H]3C(=O)O[C@H](/C(C)=C/[C@@H]3CC[C@@H](O)[C@H](OC)C3)[C@H](C)[C@@H](O)CC1=O)[C@H](C)C[C@@H]2OC [ascomycin]
A) No

Q) Cool, now O=C1c2ccccc2S(=O)(=O)N1CCCCN1CCN(c2ncccn2)CC1 [ipsapirone]
A) No

Q) Cool, now NC(=O)N/N=C/c1ccc(Oc2ccc(F)cc2)cc1
A) No

Q) Cool, now CN(C)c1cccc(Oc2cnc(Nc3cccc(O)c3)nc2)c1
A) No

Q) Cool, now C#Cc1cccc(Nc2ncnc3cc(OCCOC)c(OCCO)cc23)c1
A) No

Q) Cool, now O=C(O)c1ccc(-n2nc(-c3ccccc3O)nc2-c2ccccc2O)cc1 [deferasirox]
A) No

Q) Cool, now Cc1ncc(-c2ccnc(Nc3ccc(S(C)(=O)=O)cc3)n2)n1C(C)C
A) No

Q) Cool, now C=C1C[C@]23C[C@@]1(O)CC[C@H]2[C@@]12C=C[C@H](O)[C@@](C)(C(=O)O1)[C@H]2[C@@H]3C(=O)O
A) No

Q) Cool, now COC[C@@H](c1ccc(C(F)(F)F)cc1)N1CCN(C2(C)CCN(C(=O)c3c(C)ncnc3C)CC2)C[C@@H]1C [vicriviroc]
A) No

Q) Cool, now COc1ccc(-c2cc3c(C)nc(N)nc3n([C@H]3CC[C@H](OCCO)CC3)c2=O)cn1
A) No

----------
Quick reference: inhibition of SARS-CoV-2 cytopathic effect of the listed items.
- System: Vero E6 infected with SARS-CoV-2
- Assay overview: inhibition of SARS-CoV-2 cytopathic effect; higher = more antiviral protection, active = above 15
- Condition details: 8.33 nM; 48 h
Give just the number in %; leave the unit off.

Record excerpt, results attached:
Cc1cc(C)c2c(c1)[C@@H](N(Cc1cc(C(F)(F)F)cc(C(F)(F)F)c1)c1nnn(C)n1)CCCN2C[C@H]1CC[C@H](C(=O)O)CC1: -0.17
O=C(O)c1cc(O)c2c3nc4ccccc4oc-3cc(=O)c2n1: 3.09
COc1cc2ncn(-c3cc(OCc4ccccc4C(F)(F)F)c(C(N)=O)s3)c2cc1OC: -5.03
O=CN1CCC(C(=O)NCCN2CCC(=C3c4ccccc4C=Cc4ccccc43)CC2)CC1: 0.48

Q) Given Clc1ccc(COC(Cn2ccnc2)c2ccc(Cl)cc2Cl)c(Cl)c1 (stereo unspecified) , state its recorded inhibition of SARS-CoV-2 cytopathic effect.
A) 0.22

Q) Cool, now CN1CCN(Cc2ccc(Nc3ncc(Cl)c(Nc4ccccc4S(=O)(=O)N(C)C)n3)cc2)CC1
A) 0.81

Q) Cool, now Cc1cnc(C(=O)O)c[n+]1[O-]
A) -0.46

Q) Cool, now Cn1ncc(Cl)c1-c1cc(C(=O)N[C@H](CN)Cc2cccc(F)c2)sc1Cl
A) -1.05

Q) Cool, now CN(C)C(=O)CCSC(SCCC(=O)O)c1cccc(/C=C/c2ccc3ccc(Cl)cc3n2)c1 (stereo unspecified)
A) -1.39

Q) Cool, now N#Cc1ccc(N2CCN(C(=O)COc3ccc4[nH]cc(CCN)c4c3)CC2)cc1
A) -0.51

Q) Cool, now COc1ccc2[nH]cc(C3=CCNCC3)c2c1
A) -0.77

Q) Cool, now NC1=NC(=O)N([C@H]2C[C@H](O)[C@@H](CO)O2)CN1
A) -2.12

Q) Cool, now Cc1cccc(C)c1-n1c(=O)c2cnc(Nc3ccc(N4CCN(C)CC4)cc3)nc2n2c3ccccc3nc12
A) -0.67

----------
- System: Vero E6 infected with SARS-CoV-2
- Assay overview: inhibition of SARS-CoV-2 cytopathic effect; higher = more antiviral protection, active = above 15
- Condition details: 8.33 nM; 48 h
Quick reference: inhibition of SARS-CoV-2 cytopathic effect of the listed items.
Give just the number in %; leave the unit off.

Clc1cccc(-n2nnnc2NCc2ccccc2Oc2ccccn2)c1Cl: -1.76
O=C(O)[C@H]1O[C@@H](Oc2cc3oc(-c4ccccc4)cc(=O)c3c(O)c2O)[C@H](O)[C@@H](O)[C@@H]1O: -0.79
O=C1[C@H](CC[C@H](O)c2ccc(F)cc2)[C@@H](c2ccc(O)cc2)N1c1ccc(F)cc1: 0.64
CCCCCCCCCCCCCCCCOc1nc2ccc(C)cc2c(=O)o1: 1.36

Now look at this one.
Q) Please state recorded inhibition of SARS-CoV-2 cytopathic effect (tested on Vero E6 infected with SARS-CoV-2) of Cc1ncc(-c2ccnc(Nc3ccc(S(C)(=O)=O)cc3)n2)n1C(C)C
A) -1.83

----------
- Tested on: Vero E6 infected with SARS-CoV-2
- Assay overview: inhibition of SARS-CoV-2 cytopathic effect; higher = more antiviral protection, active = above 15
- Condition details: 1 nM; 48 h
Quick reference: inhibition of SARS-CoV-2 cytopathic effect of the listed items.
Give just the number in %; leave the unit off.

COc1ccc(Nc2ccn(-c3ccccc3)n2)cc1: 2.12
O=C(Nc1ccccc1)N1CCN(c2nc(-c3ccccc3)ns2)CC1: 1.74
CCN(CC)CCOC(=O)C(Cc1cccc2ccccc12)CC1CCCO1 (mixture of isomers): 0.67

Q) Given c1ccc2c(Cc3c[nH]c4ccccc34)c[nH]c2c1 , state its recorded inhibition of SARS-CoV-2 cytopathic effect.
A) 0.74

Q) Cool, now CCc1ccc(CCOc2ccc(CC3SC(=O)NC3=O)cc2)nc1 (centres undefined)
A) -1.62

Q) Cool, now C=CC(C)(C)c1cc(/C=C/C(=O)c2ccc(O)cc2)c(OC)cc1O
A) -0.14

Q) Cool, now CC(C)(C(=O)O)c1ccc(C(=O)CCCN2CCC(OC(c3ccccc3)c3ccccc3)CC2)cc1
A) -2.83

Q) Cool, now COc1ccc(Nc2nccc(NCCO)n2)cc1
A) 0.83
